- Test system: TNF-α
- assayComment: LPS-induced cytokine production in RAW264.7 cell, TNF-α
- Assay type: cell-based
- conditionLabel: Mus musculus, RAW264.7, 48 h, read-out: TNF-α IC50
# key: entry, value: pIC50
For clarity, pIC50 is expressed as the negative log10 of concentration in mol/L.

Ask: Give a short answer stating reported pIC50 for CCN(CCCC(C)Nc1ccnc2cc(Cl)ccc12)CCNC(=O)C(F)(F)C1CCN(C(=O)C2OC(OC)C3OC(C)(C)OC23)CC1 (stereo not drawn) .
Result: 5.36

Ask: Give a short answer stating reported pIC50 for CCN(CCCC(C)Nc1ccnc2cc(Cl)ccc12)CCNC(=O)CCOCCOCCOCCOCCOCC(=O)Nc1ccc2c(c1)OC(F)(F)O2 (stereo not drawn) .
Result: 4.97

Ask: Give a short answer stating reported pIC50 for CCN(CCO)CCCC(C)Nc1ccnc2cc(Cl)ccc12 (stereo not drawn) [Compound 2, hydroxychloroquine, reference compound] .
Result: 5.00

Ask: Give a short answer stating reported pIC50 for CCN(CC)CCCC(C)Nc1ccnc2cc(Cl)ccc12 (stereo not drawn) [Compound 1, chloroquine, reference compound] .
Result: 4.46

Ask: Give a short answer stating reported pIC50 for CCN(CCCC(C)Nc1ccnc2cc(Cl)ccc12)CCNC(=O)C(F)(F)C1CCN(CC(O)C(F)(F)F)CC1 (stereo not drawn) .
Result: 4.80

Ask: Give a short answer stating reported pIC50 for CCN(CCCC(C)Nc1ccnc2cc(Cl)ccc12)CCNC(=O)C(F)(F)C1CCN(CCOCCOC)CC1 (stereo not drawn) .
Result: 4.61

Numbers sourced from paper PMC8434889.
